- System: Hepatitis B virus
- Assay Overview: Selectivity ratio of CC50 for human HepG2(2.2.15) cells to IC50 for Hepatitis B virus infected in human HepG2(2.2.15) cells assessed as inhibition of viral replication
- Format: cell-based
- Condition Label: read-out: Ratio CC50/IC50

| Compound | Target System | selectivity ratio |
| --- | --- | --- |
| CC(=O)[C@]1(O)CC[C@@]2(O)[C@]1(C)[C@H](OC(=O)/C=C(\C)C(C)C)C[C@@H]1[C@@]3(C)CC[C@H](OC(=O)c4cc5ccccc5[nH]4)CC3=CC[C@]12O | Hepatitis B virus | 10.1 |
| C/C(=C\C(=O)O[C@@H]1C[C@@H]2[C@@]3(C)CC[C@H](O)CC3=CC[C@@]2(O)[C@@]2(O)CC[C@@](O)(C(C)O)[C@@]12C)C(C)C (stereo not given in full) | Hepatitis B virus | 1.3 |
| CCOCC(=O)O[C@H]1CC[C@@]2(C)C(=CC[C@]3(O)[C@@H]2C[C@@H](OC(=O)/C=C(\C)C(C)C)[C@@]2(C)[C@]3(O)CC[C@@]2(O)C(C)=O)C1 | Hepatitis B virus | 8.4 |
| CC(=O)[C@]1(O)CC[C@@]2(O)[C@]1(C)[C@H](OC(=O)/C=C(\C)C(C)C)C[C@@H]1[C@@]3(C)CC[C@H](OC(=O)c4ccc(Br)cn4)CC3=CC[C@]12O | Hepatitis B virus | 3.9 |
| CC(=O)[C@]1(O)CC[C@@]2(O)[C@]1(C)[C@H](OC(=O)/C=C(\C)C(C)C)C[C@@H]1[C@@]3(C)CC[C@H](OC(=O)c4cccnc4)CC3=CC[C@]12O | Hepatitis B virus | 12.4 |

----------
- Test system: Hepatitis B virus
- Assay Overview: Selectivity ratio of CC50 for human HepG2(2.2.15) cells to IC50 for Hepatitis B virus infected in human HepG2(2.2.15) cells assessed as inhibition of viral replication
- Assay type: cell-based
- Condition Label: read-out: Ratio CC50/IC50
Outcome Measure: selectivity ratio

| Compound | Modifier Sign | Assay Result |
| --- | --- | --- |
| CC(=O)[C@]1(O)CC[C@@]2(O)[C@]1(C)[C@H](OC(=O)/C=C(\C)C(C)C)C[C@@H]1[C@@]3(C)CC[C@H](OC(=O)c4ccc(F)nc4)CC3=CC[C@]12O | = | 2.9 |
| COCC(=O)O[C@H]1CC[C@@]2(C)C(=CC[C@]3(O)[C@@H]2C[C@@H](OC(=O)/C=C(\C)C(C)C)[C@@]2(C)[C@]3(O)CC[C@@]2(OC(=O)COC)C(C)=O)C1 | > | 4.9 |
| CC(=O)N1CCC(C(=O)O[C@H]2CC[C@@]3(C)C(=CC[C@]4(O)[C@@H]3C[C@@H](OC(=O)/C=C(\C)C(C)C)[C@@]3(C)[C@]4(O)CC[C@@]3(O)C(C)=O)C2)CC1 | = | 1.1 |
| C[C@H](Cn1cnc2c(N)ncnc21)OCP(=O)(O)O [TENOFOVIR ANHYDROUS] | > | 2360 |
| CC(=O)[C@]1(O)CC[C@@]2(O)[C@]1(C)[C@H](OC(=O)/C=C(\C)C(C)C)C[C@@H]1[C@@]3(C)CC[C@H](OC(=O)c4cccnc4)CC3=CC[C@]12OC(=O)c1cccnc1 | = | 3.6 |
| CC(=O)[C@]1(OC(=O)c2cccnc2)CC[C@@]2(O)[C@]1(C)[C@H](OC(=O)/C=C(\C)C(C)C)C[C@@H]1[C@@]3(C)CC[C@H](OC(=O)c4cccnc4)CC3=CC[C@]12O | > | 24.4 |
| CC(=O)[C@]1(O)CC[C@@]2(O)[C@]1(C)[C@H](OC(=O)/C=C(\C)C(C)C)C[C@@H]1[C@@]3(C)CC[C@H](OC(=O)/C=C/n4ccnc4)CC3=CC[C@]12O | > | 195 |
| CC(=O)[C@]1(O)CC[C@@]2(O)[C@]1(C)[C@H](OC(=O)/C=C(\C)C(C)C)C[C@@H]1[C@@]3(C)CC[C@H](OC(=O)c4cnccn4)CC3=CC[C@]12O | = | 1.3 |
| COc1cc(C(=O)O[C@H]2CC[C@@]3(C)C(=CC[C@]4(O)[C@@H]3C[C@@H](OC(=O)/C=C(\C)C(C)C)[C@@]3(C)[C@]4(O)CC[C@@]3(O)C(C)=O)C2)on1 | = | 7.8 |
| CC(=O)[C@]1(O)CC[C@]23OC(C)(C)O[C@]24CC=C2C[C@@H](O)CC[C@]2(C)[C@H]4C[C@@H](OC(=O)/C=C(\C)C(C)C)[C@@]31C | = | 2.3 |
| CC(=O)[C@]1(O)CC[C@@]2(O)[C@]1(C)[C@H](OC(=O)/C=C(\C)C(C)C)C[C@@H]1[C@@]3(C)CC[C@H](OC(=O)C(C#N)=C(C)C)CC3=CC[C@]12O | = | 14.8 |
